target: PKR R532W (Homo sapiens, UniProt P30613, R532W); experiment: PKR Mutant Assay, AC50 against PKR R532W; type: biochemical; conditions: mutant PKR R532W enzyme
Sequence (P30613 whole entry R532W): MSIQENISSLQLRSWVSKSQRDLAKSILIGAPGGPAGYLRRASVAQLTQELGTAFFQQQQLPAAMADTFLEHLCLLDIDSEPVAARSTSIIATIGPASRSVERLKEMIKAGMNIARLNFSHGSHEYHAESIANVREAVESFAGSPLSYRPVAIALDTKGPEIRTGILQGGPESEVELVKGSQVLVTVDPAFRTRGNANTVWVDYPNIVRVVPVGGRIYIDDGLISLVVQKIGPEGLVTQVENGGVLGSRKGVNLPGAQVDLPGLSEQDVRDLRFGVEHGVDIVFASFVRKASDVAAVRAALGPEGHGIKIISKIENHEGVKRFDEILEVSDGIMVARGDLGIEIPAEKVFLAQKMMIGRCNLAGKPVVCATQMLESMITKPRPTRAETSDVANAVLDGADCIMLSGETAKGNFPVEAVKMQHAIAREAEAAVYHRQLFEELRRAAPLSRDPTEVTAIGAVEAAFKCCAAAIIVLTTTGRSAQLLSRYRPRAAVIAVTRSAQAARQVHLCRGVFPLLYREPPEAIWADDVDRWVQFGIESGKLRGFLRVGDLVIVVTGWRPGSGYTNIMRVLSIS
Recorded AC50 for the following molecules

Study these solved cases before continuing.
// query Look up and report measured AC50 for this entry: O=C(c1ccc(NS(=O)(=O)c2cccc3nccnc23)cc1)N1CCC(O)(c2ccccc2)CC1 [Compound 243]
// result 101 to 1000 nM

// query Look up and report measured AC50 for this entry: O=C(c1ccc(NS(=O)(=O)c2cccc3scnc23)cc1)N1CCC(O)(c2cccc(F)c2F)CC1 [Compound 178]
// result < 100 nM

// query Look up and report measured AC50 for this entry: CC(C)CC1(O)CCN(C(=O)c2ccc(NS(=O)(=O)c3cccc4nccnc34)cc2)CC1 [Compound 160]
// result < 100 nM

// query Look up and report measured AC50 for this entry: O=C(c1ccc(NS(=O)(=O)c2cccc3ocnc23)cc1)N1CCC(O)(c2ccccc2Cl)CC1 [Compound 381]
// result 101 to 1000 nM

// query Look up and report measured AC50 for this entry: CCOC(=O)C1(Cc2ccccc2)CCN(C(=O)c2ccc(NS(=O)(=O)c3cccc4cccnc34)cc2)CC1 [Compound 330]
// result 101 to 1000 nM

More entries:
// query Look up and report measured AC50 for this entry: CC(C)CC1(CO)CCN(C(=O)c2ccc(NS(=O)(=O)c3cccc4scnc34)cc2)CC1 [Compound 216]
// result < 100 nM

// query Look up and report measured AC50 for this entry: Cc1ccccc1C1(O)CCN(C(=O)c2ccc(NS(=O)(=O)c3cccc4cccnc34)cc2)CC1 [Compound 103]
// result < 100 nM

// query Look up and report measured AC50 for this entry: O=C(c1ccc(NS(=O)(=O)c2cccc3ccccc23)cc1)N1CCC(O)(c2ccccc2Cl)CC1 [Compound 197]
// result < 100 nM

// query Look up and report measured AC50 for this entry: CC(C)(O)CC1(O)CCN(C(=O)c2ccc(NS(=O)(=O)c3cccc4cccnc34)cc2)CC1 [Compound 241]
// result 101 to 1000 nM

----------
molecular target: PKR R532W (Homo sapiens, UniProt P30613, R532W); assay: PKR Mutant Assay, AC50 against PKR R532W; type: biochemical; settings: mutant PKR R532W enzyme
measured_quantity: AC50

// query Look up and report measured AC50 for this entry: "O=C(c1ccc(NS(=O)(=O)c2ccc(F)c3cccnc23)cc1)N1CCC(O)(c2ccccc2Cl)CC1"
// result < 100 nM

// query Look up and report measured AC50 for this entry: "N#Cc1ccc(C2(O)CCN(C(=O)c3ccc(NS(=O)(=O)c4cccc5cccnc45)cc3)CC2)cc1"
// result 101 to 1000 nM

// query Look up and report measured AC50 for this entry: "Cc1nc(C2(O)CCN(C(=O)c3ccc(NS(=O)(=O)c4cccc5cccnc45)cc3)CC2)ccc1F"
// result < 100 nM

Continue with the molecule presented below.
// query Look up and report measured AC50 for this entry: "O=C(c1ccc(NS(=O)(=O)c2ccc(C(F)(F)F)cc2)cc1)N1CCC(O)(Cc2ccccc2)CC1"
// result > 10000 nM

----------
molecular target: PKR WT (Homo sapiens); experiment: PKR WT enzymatic AC50 assay; assay type: biochemical; conditions: wild type PKR
Sequence (P30613 whole entry): as the sequence (P30613 whole entry R532W) above, with W532R counted along it
measured_quantity: AC50

Study these solved cases before continuing.
// query Report measured AC50 on PKR WT (Homo sapiens); entry: CC(C)CC1(O)CCN(C(=O)c2ccc(NS(=O)(=O)c3cnc(O)c4cccnc34)cc2)CC1 [Compound 416]
// result 1010 to 10000 nM

// query Report measured AC50 on PKR WT (Homo sapiens); entry: CC(C)CC1(O)CCN(C(=O)c2ccc(NS(=O)(=O)c3cccc4scnc34)cc2)CC1 [Compound 173]
// result < 100 nM

// query Report measured AC50 on PKR WT (Homo sapiens); entry: O=C(c1ccc(NS(=O)(=O)c2cccc3cc(F)cnc23)cc1)N1CCC(O)(c2ccccc2)CC1 [Compound 218]
// result < 100 nM

More entries:
// query Report measured AC50 on PKR WT (Homo sapiens); entry: O=C(c1ccc(NS(=O)(=O)c2cccc3cccnc23)cc1)N1CCC(O)(c2ncccc2C(F)(F)F)CC1 [Compound 164]
// result < 100 nM

// query Report measured AC50 on PKR WT (Homo sapiens); entry: O=C(c1ccc(NS(=O)(=O)c2ccc(F)c3nccnc23)cc1)N1CCC(O)(c2ccccc2Cl)CC1 [Compound 234]
// result 101 to 1000 nM

// query Report measured AC50 on PKR WT (Homo sapiens); entry: O=C(c1ccc(NS(=O)(=O)c2cccc3cccnc23)cc1)N1CCC(O)(c2ccccc2C(F)F)CC1 [Compound 113]
// result < 100 nM

// query Report measured AC50 on PKR WT (Homo sapiens); entry: Cc1cc(C(=O)N2CCC(O)(c3cccc(F)c3F)CC2)ccc1NS(=O)(=O)c1cccc2nccnc12 [Compound 175]
// result < 100 nM

// query Report measured AC50 on PKR WT (Homo sapiens); entry: O=C(c1ccc(NS(=O)(=O)c2cccc3nccnc23)c(F)c1)N1CCC(O)(c2cccc(F)c2F)CC1 [Compound 262]
// result 101 to 1000 nM

// query Report measured AC50 on PKR WT (Homo sapiens); entry: COc1ccccc1C1(O)CCN(C(=O)c2ccc(NS(=O)(=O)c3cccc4cccnc34)cc2)CC1 [Compound 184]
// result < 100 nM

----------
Recorded AC50 for the following compounds
molecular target: UniProtKB P30613; assay: PKR WT enzymatic AC50 assay; format: biochemical; details: wild type PKR

// query Look up and report measured AC50 for this entry: Cc1ccccc1C1(O)CCN(C(=O)c2ccc(NS(=O)(=O)c3cccc4cccnc34)cc2)CC1 [Compound 103]
// result < 0.1 µM

// query Look up and report measured AC50 for this entry: CC(CC1(O)CCN(C(=O)c2ccc(NS(=O)(=O)c3cccc4scnc34)cc2)CC1)C(F)F (stereo not drawn) [Compound 405]
// result 0.101 to 1 µM

// query Look up and report measured AC50 for this entry: O=C(c1ccc(NS(=O)(=O)c2cccc3scnc23)cc1)N1CCC(O)(CCCC(F)(F)F)CC1 [Compound 394]
// result < 0.1 µM

// query Look up and report measured AC50 for this entry: O=C(c1ccc(NS(=O)(=O)c2cccc3cccnc23)c(F)c1)N1CCC(O)(c2ccccc2Cl)CC1 [Compound 143]
// result < 0.1 µM

// query Look up and report measured AC50 for this entry: Cc1nc(F)ccc1C1(O)CCN(C(=O)c2ccc(NS(=O)(=O)c3cccc4cccnc34)cc2)CC1 [Compound 129]
// result < 0.1 µM

Continue with the compound presented below.
// query Look up and report measured AC50 for this entry: CS(=O)(=O)c1ccccc1C1(O)CCN(C(=O)c2ccc(NS(=O)(=O)c3cccc4cccnc34)cc2)CC1 [Compound 192]
// result < 0.1 µM

----------
target: PKR R510Q (Homo sapiens, UniProt P30613, R510Q); assay: PKR Mutant Assay, AC50 against PKR R510Q; format: biochemical; settings: mutant PKR R510Q enzyme
Sequence (P30613 whole entry R510Q): as the sequence (P30613 whole entry R532W) above, with R510Q, W532R counted along it
measured_quantity: AC50

Study these solved cases before continuing.
// query Look up and report measured AC50 for this entry: O=C(c1ccc(NS(=O)(=O)c2cccc(OC(F)(F)F)c2)cc1)N1CCC(O)(Cc2ccccc2)CC1 [Compound 307]
// result > 10000 nM

// query Look up and report measured AC50 for this entry: CC(CC1(O)CCN(C(=O)c2ccc(NS(=O)(=O)c3cccc4scnc34)cc2)CC1)C(F)F (stereo not shown) [Compound 405]
// result 101 to 1000 nM

// query Look up and report measured AC50 for this entry: CC(C)CC1(O)CCN(C(=O)c2ccc(NS(=O)(=O)c3cccc4scnc34)cc2)CC1 [Compound 173]
// result < 100 nM

// query Look up and report measured AC50 for this entry: CC(C)CC1(O)CCN(C(=O)c2ccc(NS(=O)(=O)c3cccc4cccnc34)cc2)CC1 [Compound 140]
// result < 100 nM

// query Look up and report measured AC50 for this entry: CC(F)(F)CCC1(O)CCN(C(=O)c2ccc(NS(=O)(=O)c3cccc4nccnc34)cc2)CC1 [Compound 396]
// result 101 to 1000 nM

// query Look up and report measured AC50 for this entry: CCOCC1(O)CCN(C(=O)c2ccc(NS(=O)(=O)c3cccc4cccnc34)cc2)CC1 [Compound 246]
// result 1010 to 10000 nM

// query Look up and report measured AC50 for this entry: O=C(c1ccc(NS(=O)(=O)c2ccc(F)c3cccnc23)cc1)N1CCC(O)(Cc2ccccc2F)CC1 [Compound 158]
// result < 100 nM

// query Look up and report measured AC50 for this entry: O=C(c1ccc(NS(=O)(=O)c2cccc3cccnc23)cc1)N1CCC(O)(Cc2cccc(F)n2)CC1 [Compound 146]
// result 101 to 1000 nM

// query Look up and report measured AC50 for this entry: Nc1nc2c(S(=O)(=O)Nc3ccc(C(=O)N4CCC(O)(c5cccc(F)c5F)CC4)cc3)cccc2s1 [Compound 422]
// result < 100 nM

Continue with the compound presented below.
// query Look up and report measured AC50 for this entry: O=C(c1ccc(NS(=O)(=O)c2cccc3scnc23)cc1)N1CCC(O)(c2cccc(F)c2F)CC1 [Compound 178]
// result 101 to 1000 nM

The origin of these recorded values is patent US9108921B2.
